test system: IL-2 production; test: Inhibition of IL-2 production in PHA-activated Jurkat cells (ELISA); assay type: cell-based; details: Homo sapiens, Jurkat, 20 h, PHA 2.5 μg/mL, IL-2 ELISA
pIC50: −log10 of the molar value. Counter-ions that a name gives are not always drawn.
Provide the reported pIC50 of each item.

Request: Item O=C(Nc1c(F)cccc1F)c1cnc(-c2cccc(-c3ncco3)c2)s1 [Compound 124] has what recorded pIC50?
Result: < 6.00

Request: Quick check: pIC50 of O=C(Nc1c(F)cccc1F)c1ncc(-c2cc(C(F)(F)F)ccc2Cl)s1 [Compound 129] ?
Result: > 7.52

Request: I have this molecule here, O=C(Nc1nc(C2CC2)c(-c2cccc(C(F)(F)F)c2)s1)c1c(F)cccc1F [Compound 52] , and I need its recorded pIC50.
Result: 7.00 to 7.30

Request: I am curious: what pIC50 value has been reported for O=C(Nc1nc(-c2ccccn2)c(-c2cccc(C(F)(F)F)c2)s1)c1c(F)cccc1F [Compound 107] ?
Result: > 7.52

Request: pIC50 lookup needed for COc1ccc(OC)c(-c2sc(NC(=O)c3c(F)cccc3F)nc2C)c1 [Compound 55] , thanks.
Result: 6.30 to 6.70

Request: What value of measured pIC50 is listed for Cc1nc(NC(=O)c2c(F)cccc2F)sc1-c1cccc(C(F)(F)F)c1 [Compound 9] ?
Result: 7.30 to 7.52

Request: Give its pIC50 value. Item: O=C(Nc1c(F)cccc1F)c1ncc(-c2cccc(C(F)(F)F)c2)s1 [Compound 130]
Result: 6.70 to 7.00

Request: // returns reported pIC50 for input O=C(Nc1nc(-c2ncc[nH]2)c(-c2cccc(C(F)(F)F)c2)s1)c1c(F)cccc1F [Compound 78, hydrochloride]
Result: < 6.00

Request: So what's the measured pIC50 for this one? Cc1cnccc1NC(=O)c1ncc(-c2cc(-c3nccs3)ccc2C)s1 [Compound 133]
Result: < 6.00

Request: What does the data say about its pIC50? Entry: C=CCOc1ccc(C(F)(F)F)cc1-c1sc(NC(=O)c2c(F)cccc2F)nc1C(=C)C [Compound 64]
Result: < 6.00

Request: Could you share which pIC50 value was measured for Nc1nc(-c2nc(NC(=O)c3c(F)cccc3F)sc2-c2cccc(C(F)(F)F)c2)cs1 [Compound 87] ?
Result: < 6.00

Request: Quick one: pIC50 of Cc1nc(NC(=O)c2ccncc2F)sc1-c1cccc(C(F)(F)F)c1 [Compound 10] ?
Result: < 6.00

Request: Could you tell me which pIC50 is on file for O=C(Nc1ncc(-c2cc(C(F)(F)F)ccc2Cl)s1)c1c(F)cccc1F [Compound 4] ?
Result: 7.00 to 7.30

Request: Which pIC50 value belongs to C=CCOc1ccc(C(F)(F)F)cc1-c1cnc(NC(=O)c2c(F)cccc2F)s1 [Compound 65] ?
Result: < 6.00

Request: Quick check: pIC50 of O=C(Nc1nc(C2=NCCN2)c(-c2cccc(C(F)(F)F)c2)s1)c1c(F)cccc1F [Compound 77] ?
Result: < 6.00

Request: Returns the measured pIC50 for the input molecule. Input: Cc1nnsc1C(=O)Nc1nc(C)c(-c2cccc(C(F)(F)F)c2)s1 [Compound 12]
Result: < 6.00

###

system: IL-2 production; assay: Inhibition of IL-2 production in PHA-activated Jurkat cells (ELISA); format: cell-based; conditions: Homo sapiens, Jurkat, 20 h, PHA 2.5 μg/mL, IL-2 ELISA
Structures can show the parent of a compound that is named as a salt.
Please respond with reported IC50 for every item in the list.

Request: Query: IC50; subject: O=C(Nc1nc(/C=N\O)c(-c2cccc(C(F)(F)F)c2)s1)c1c(F)cccc1F [Compound 72]
Result: > 1000 nM

Request: Give its IC50 value. Item: O=Cc1nc(NC(=O)c2c(F)cccc2F)sc1-c1cccc(C(F)(F)F)c1 [Compound 67]
Result: > 1000 nM

Request: Can you look up the measured IC50 of CON(C)C(=O)c1nc(NC(=O)c2c(F)cccc2F)sc1-c1cccc(C(F)(F)F)c1 [Compound 93] for me?
Result: > 1000 nM

Request: Look at this compound and give its reported IC50. Cc1cnccc1C(=O)Nc1nc(C2CC2)c(-c2cccc(C(F)(F)F)c2)s1 [Compound 53]
Result: 50 to 100 nM

Request: Recorded IC50 for COc1ccc(-c2nc(NC(=O)c3c(F)cccc3F)sc2-c2cccc(C(F)(F)F)c2)cc1OC [Compound 109] , please?
Result: > 1000 nM

Request: Sample N#Cc1cccc(-c2cnc(NC(=O)c3c(F)cccc3F)s2)c1 [Compound 6] — what was its IC50?
Result: > 1000 nM

Request: Need IC50, item O=C(Nc1nc(-c2ncco2)c(-c2cccc(C(F)(F)F)c2)s1)c1c(F)cccc1F [Compound 91]
Result: 50 to 100 nM

Request: // IC50 lookup, key: Cc1cnccc1C(=O)Nc1nc(C(=O)O)c(-c2cccc(C(F)(F)F)c2)s1 [Compound 112]
Result: > 1000 nM

Request: Look at this compound and give its reported IC50. CCOC(=O)c1nc(-c2nc(NC(=O)c3c(F)cccc3F)sc2-c2cccc(C(F)(F)F)c2)c(C)s1 [Compound 96]
Result: > 1000 nM

Request: What does the data say about its IC50? Entry: CC(O)c1nc(NC(=O)c2c(F)cccc2F)sc1-c1cccc(C(F)(F)F)c1 (stereo not shown) [Compound 74]
Result: > 1000 nM

Request: Please look up its IC50: Cc1cnccc1NC(=O)c1ncc(-c2cc(-c3ncco3)ccc2C)s1 [Compound 132]
Result: > 1000 nM

Request: Reported IC50, compound COC(=O)c1cccc(-c2sc(NC(=O)c3c(F)cccc3F)nc2C(=O)OC)c1 [Compound 114] : ____
Result: > 1000 nM

Request: Given the entry Cc1nc(NC(=O)c2c(F)cccc2F)sc1-c1ccc(Br)s1 [Compound 59] , report its measured IC50.
Result: 100 to 200 nM

Request: // returns reported IC50 for input Cc1nc(-c2sc(NC(=O)c3c(F)cccc3F)nc2C)cs1 [Compound 114b]
Result: > 1000 nM

Request: Item under review: O=C(Nc1c(F)cccc1F)c1ncc(-c2cccc(-c3ncco3)c2)s1 [Compound 131] . Reported IC50?
Result: 50 to 100 nM

Request: Recorded IC50 for COc1ccc(OC)c(-c2cnc(NC(=O)c3c(F)cccc3F)s2)c1 [Compound 3] , please?
Result: 100 to 200 nM

Request: Request the reported IC50 associated with COC(=O)c1cccc(-c2sc(NC(=O)c3c(F)cccc3F)nc2C)c1 [Compound 8]
Result: 200 to 500 nM

Request: What value of IC50 has been reported for the following compound? Cn1cncc1-c1nc(NC(=O)c2c(F)cccc2F)sc1-c1cccc(C(F)(F)F)c1 [Compound 80]
Result: > 1000 nM

Request: # IC50 lookup, item COc1ncc(Cl)cc1-c1ncc(C(=O)Nc2c(F)cccc2F)s1 [Compound 126]
Result: > 1000 nM

Request: Look up IC50 for this compound: CC(C)(O)c1nc(NC(=O)c2c(F)cccc2F)sc1-c1cccc(C(F)(F)F)c1 [Compound 68]
Result: > 1000 nM

Request: Fill blank: measured IC50 of the compound Cc1nc(C)c(-c2nc(NC(=O)c3c(F)cccc3F)sc2-c2cccc(C(F)(F)F)c2)o1 [Compound 81] is ____.
Result: > 1000 nM

Request: Which measured IC50 value corresponds to CCOC(=O)c1nc(-c2sc(NC(=O)c3c(F)cccc3F)nc2C)cs1 [Compound 114a] ?
Result: > 1000 nM

Request: Using the record for CC(C)c1nc(NC(=O)c2c(F)cccc2F)sc1-c1cccc(C(F)(F)F)c1 [Compound 69] , report its IC50.
Result: 200 to 500 nM

Request: GET /values?readout=IC50&item= Cc1nc(C(=O)Nc2c(F)cccc2F)sc1-c1cccc(-c2ncco2)c1 [Compound 116]
Result: 50 to 100 nM

Request: Can you share its IC50? I mean this compound: Cc1nc(NC(=O)c2c(F)cccc2F)sc1-c1cc(Br)c2c(c1)OCO2 [Compound 56]
Result: 200 to 500 nM

Request: Quick one: IC50 for Cc1nc(NC(=O)c2c(F)cccc2F)sc1-c1ccsc1 [Compound 62] ?
Result: > 1000 nM

Request: Request the reported IC50 associated with C=Cc1nc(NC(=O)c2c(F)cccc2F)sc1-c1cccc(C(F)(F)F)c1 [Compound 75]
Result: 200 to 500 nM

Request: For the compound shown here, Cc1nc(C(=O)Nc2c(F)cccc2F)sc1-c1cc(C(F)(F)F)ccc1Cl [Compound 119] , give the reported IC50.
Result: 200 to 500 nM

Request: Query (compound): Cc1ccc(-c2nccs2)cc1-c1ncc(C(=O)Nc2c(F)cccc2F)s1 [Compound 122] ; field requested: IC50
Result: 30 to 50 nM

Request: Requested field: IC50. Item: C=C(C)c1nc(NC(=O)c2c(F)cccc2F)sc1-c1cccc(C(F)(F)F)c1 [Compound 68a]
Result: 50 to 100 nM

Request: # input compound: Cc1nc(NC(=O)c2c(F)cccc2F)sc1-c1ccncc1 [Compound 54, hydrobromide] ; wanted: its IC50
Result: > 1000 nM

Request: Entry under review: Cc1ccc(-c2nnco2)cc1-c1ncc(C(=O)Nc2c(F)cccc2F)s1 [Compound 128] . Reported IC50?
Result: 200 to 500 nM

Request: Given the entry Cc1ncccc1C(=O)Nc1nc(C)c(-c2cccc(C(F)(F)F)c2)s1 [Compound 51] , report its measured IC50.
Result: > 1000 nM

Request: Look up IC50 for this compound: Cc1nc(NC(=O)c2c(F)cccc2F)sc1-c1cc(C#N)c2c(c1)OCO2 [Compound 58]
Result: 200 to 500 nM

Hello, the source for this data is patent US8455658B2, in case you need it.
